Where do the numbers come from? From the kinase profiling compilation of Christmann-Franck et al. (2016).

Target: TAOK3 (human) (UniProt Q9H2K8)
Sequence (Q9H2K8 whole entry, looked up): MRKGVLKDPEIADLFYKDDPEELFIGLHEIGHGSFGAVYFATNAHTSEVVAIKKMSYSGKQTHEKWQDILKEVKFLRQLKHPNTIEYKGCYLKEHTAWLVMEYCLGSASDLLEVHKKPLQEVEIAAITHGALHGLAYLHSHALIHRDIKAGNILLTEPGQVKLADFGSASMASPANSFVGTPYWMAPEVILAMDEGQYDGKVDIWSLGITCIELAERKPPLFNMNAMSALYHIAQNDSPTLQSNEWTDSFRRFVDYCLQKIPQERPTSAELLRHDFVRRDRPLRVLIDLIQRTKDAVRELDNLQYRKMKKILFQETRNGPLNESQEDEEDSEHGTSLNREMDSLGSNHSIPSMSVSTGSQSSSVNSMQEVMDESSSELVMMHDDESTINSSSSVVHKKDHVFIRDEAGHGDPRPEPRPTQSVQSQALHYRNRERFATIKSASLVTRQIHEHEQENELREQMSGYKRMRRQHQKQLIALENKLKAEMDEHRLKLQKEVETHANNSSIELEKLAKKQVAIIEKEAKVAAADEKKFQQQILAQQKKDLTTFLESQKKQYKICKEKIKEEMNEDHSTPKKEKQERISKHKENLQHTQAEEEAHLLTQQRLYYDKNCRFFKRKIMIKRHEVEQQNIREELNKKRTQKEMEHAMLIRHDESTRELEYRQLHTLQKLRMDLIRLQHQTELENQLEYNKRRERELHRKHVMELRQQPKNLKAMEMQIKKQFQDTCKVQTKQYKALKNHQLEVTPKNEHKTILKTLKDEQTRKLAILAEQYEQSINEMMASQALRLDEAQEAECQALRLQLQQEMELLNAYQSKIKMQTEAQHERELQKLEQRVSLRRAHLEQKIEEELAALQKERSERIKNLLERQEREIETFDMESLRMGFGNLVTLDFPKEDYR
Test: radiometric filter-binding kinase assay, Kinase HotSpot
Settings: compound 0.5 µM; ATP 10 µM
// reported residual activity for each item listed
Give just the numeric value; % need not be written.

# Compound String, residual activity (%)
measured = [
    ("CCC(=O)Nc1ccc2ncnc(Nc3cccc(Br)c3)c2c1", 89.2),
    ("c1ccc(-c2n[nH]c3c2oc2ccccc23)cc1", 94.8),
    ("Oc1cccc(-c2nc(N3CCOCC3)c3oc4ncccc4c3n2)c1", 86.8),
    ("COc1ccc(COc2ccc(Cc3cnc(N)nc3N)cc2OC)cc1", 102),
    ("O=C1Nc2ccc(Cl)cc2/C1=C/c1cc(Cl)c(O)c(Cl)c1", 50.6),
]

Q: Which residual activity is listed for Nc1ncnc2[nH]nc(Nc3ccc(F)cc3)c12 ?
Ans: 92.4

Q: Which residual activity is listed for COc1ccc2c(c[n+](C)c3c4cc5c(cc4ccc23)OCO5)c1OC ?
Ans: 96.1

Q: Which residual activity is listed for Cc1[nH]c(/C=C2\C(=O)Nc3ccc(S(=O)(=O)N(C)c4cccc(Cl)c4)cc32)c(C)c1C(=O)N1CCN(C)CC1 ?
Ans: 61.5

###

Target: DYRK2 (human) (UniProt Q92630)
Sequence (Q92630 whole entry, looked up): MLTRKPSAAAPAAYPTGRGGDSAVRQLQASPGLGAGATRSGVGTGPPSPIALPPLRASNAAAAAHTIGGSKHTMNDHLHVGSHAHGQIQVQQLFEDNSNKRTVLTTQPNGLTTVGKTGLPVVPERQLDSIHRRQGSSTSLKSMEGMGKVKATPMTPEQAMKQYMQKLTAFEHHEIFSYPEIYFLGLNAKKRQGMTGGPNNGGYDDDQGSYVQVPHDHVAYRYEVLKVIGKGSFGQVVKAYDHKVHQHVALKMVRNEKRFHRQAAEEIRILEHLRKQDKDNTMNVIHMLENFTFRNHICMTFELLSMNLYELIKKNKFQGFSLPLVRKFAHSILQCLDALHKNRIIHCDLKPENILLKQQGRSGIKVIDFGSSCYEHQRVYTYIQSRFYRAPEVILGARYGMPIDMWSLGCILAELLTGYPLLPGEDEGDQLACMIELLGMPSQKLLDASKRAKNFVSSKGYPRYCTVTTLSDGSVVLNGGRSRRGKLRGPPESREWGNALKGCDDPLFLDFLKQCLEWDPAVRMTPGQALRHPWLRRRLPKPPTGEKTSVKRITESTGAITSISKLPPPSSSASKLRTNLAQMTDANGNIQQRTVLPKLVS
Assay: radiometric filter-binding kinase assay, Kinase HotSpot
Conditions: compound 0.5 µM; ATP 10 µM
// reported residual activity for each item listed
Give just the numeric value; % need not be written.

Some solved cases for reference:
# Molecule, Target Or Test System, Unit Symbol, residual activity
data = [
    ("CC[n+]1c(/C=C/N(C)c2ccccc2)n(-c2ccccc2)c2ccc(-c3nc4ccccc4s3)cc21", "DYRK2 (human) (UniProt Q92630)", "%", 105),
    ("O=C1NC(=O)c2c1c1c3ccccc3n3c1c1c2c2ccccc2n1C1CCC3O1", "DYRK2 (human) (UniProt Q92630)", "%", 5.94),
    ("CCCC(=O)Oc1ccc2[nH]c(C(=O)c3cc4ccccc4[nH]3)cc2c1", "DYRK2 (human) (UniProt Q92630)", "%", 91.8),
    ("Nc1cccc(-c2cc3c(Oc4cccc(O)c4)ncnc3[nH]2)c1", "DYRK2 (human) (UniProt Q92630)", "%", 76.9),
]

Q: Provide the documented residual activity with DYRK2 (human) (UniProt Q92630) as the system for COc1ccc2c(c[n+](C)c3c4cc5c(cc4ccc23)OCO5)c1OC
Ans: 94.5

Q: Provide the documented residual activity with DYRK2 (human) (UniProt Q92630) as the system for O=c1cc(N2CCOCC2)oc2c1ccc1ccccc12
Ans: 88.9

Q: Provide the documented residual activity with DYRK2 (human) (UniProt Q92630) as the system for CC(=O)c1ccc(N2CCOCC2)cc1O
Ans: 101

Q: Provide the documented residual activity with DYRK2 (human) (UniProt Q92630) as the system for CCN(CC)C(=O)c1ccc(Nc2nc(OCC3CCCCC3)c3nc[nH]c3n2)cc1
Ans: 98.2

Q: Provide the documented residual activity with DYRK2 (human) (UniProt Q92630) as the system for CCC(=O)Nc1ccc2ncnc(Nc3cccc(Br)c3)c2c1
Ans: 90.6

Q: Provide the documented residual activity with DYRK2 (human) (UniProt Q92630) as the system for CC#CC(=O)Nc1cc2c(Nc3ccc(F)c(Cl)c3)ncnc2cn1
Ans: 91.3

Q: Provide the documented residual activity with DYRK2 (human) (UniProt Q92630) as the system for O=C1NC(=O)C(c2cn(CCCn3ccnc3)c3ccccc23)=C1Nc1ccccc1
Ans: 97.3

Q: Provide the documented residual activity with DYRK2 (human) (UniProt Q92630) as the system for Cc1ccc(Nc2nccc(N(C)c3ccc4c(C)n(C)nc4c3)n2)cc1S(N)(=O)=O
Ans: 98.8

Q: Provide the documented residual activity with DYRK2 (human) (UniProt Q92630) as the system for CO[C@H]1CC2CC[C@@H](C)[C@@](O)(O2)C(=O)C(=O)N2CCCC[C@H]2C(=O)OC([C@H](C)C[C@@H]2CC[C@@H](O)[C@H](OC)C2)CC(=O)[C@H](C)/C=C(\C)[C@@H](O)[C@@H](OC)C(=O)[C@H](C)C[C@H](C)/C=C/C=C/C=C/1C (stereo not given in full)
Ans: 100

Q: Provide the documented residual activity with DYRK2 (human) (UniProt Q92630) as the system for Cc1ccc(NC2=CC(=O)c3sc(C)nc3C2=O)cc1
Ans: 109

Q: Provide the documented residual activity with DYRK2 (human) (UniProt Q92630) as the system for CCOC(=O)c1c(C)[nH]c(/C=C2\C(=O)Nc3ccccc32)c1C
Ans: 92.4

Q: Provide the documented residual activity with DYRK2 (human) (UniProt Q92630) as the system for c1ccc(-c2n[nH]cc2-c2ccnc3ccccc23)nc1
Ans: 113

Q: Provide the documented residual activity with DYRK2 (human) (UniProt Q92630) as the system for Nc1ccc2ncnc(NCCc3ccc(Oc4ccccc4)cc3)c2c1
Ans: 89.6

Q: Provide the documented residual activity with DYRK2 (human) (UniProt Q92630) as the system for Nc1ncnc2c1c(-c1ccc(Oc3ccccc3)cc1)cn2C1CCCC1
Ans: 96.5

Q: Provide the documented residual activity with DYRK2 (human) (UniProt Q92630) as the system for CNc1cc2c(Nc3cccc(Br)c3)ncnc2cn1
Ans: 89.9

Q: Provide the documented residual activity with DYRK2 (human) (UniProt Q92630) as the system for O=C(Nc1cccc(Nc2nccc(Nc3cccc(C(F)(F)F)c3)n2)c1)C1CC1
Ans: 106
